Data origin: paper PMC12135066

# experiment.summary: Biodistribution studies in HEK-uPAR xenograft-bearing nude mice
# experimental.context: female, CD1/nude, mouse, blood, 5 MBq (0.5 nmol), total radioactivity, 4 h p.i.; 5 MBq, 0.5 nmol; decay-corrected; average ± SD, n=3 animals
reported.metric: tissue uptake at 4 h (%ID/g)
Give the value in %ID/g but do not write %ID/g after it.

**Query** Suppose we examine the compound CC(C)C[C@H](NC(=O)[C@H](Cc1ccc(O)cc1)NC(=O)[C@@H](CCCNC(=N)N)NC(=O)[C@@H](CO)NC(=O)[C@H](Cc1ccccc1)NC(=O)[C@H](CC1CCCCC1)NC(=O)[C@H](CC(=O)O)NC(=O)[C@H](CCCCNC(=O)CCCc1ccc(I)cc1)NC(=O)[C@@H](N)CCCCNC(=O)CN1CCN(CC(=O)O)CCN(CC(=O)O)CCN(CC(=O)O)CC1)C(=O)N[C@@H](Cc1c[nH]c2ccccc12)C(=O)N[C@@H](CO)C(N)=O [[^177Lu]Lu-uPAR-04, metal not drawn] ; what tissue uptake at 4 h value has been reported?
**Result** 13
